So I've got a bunch of compounds here, and I need their growth values.
- Test system: Falciformispora senegalensis CBS197.79
- procedure-text: growth relative to untreated control; higher = less inhibition, active = 20 or less
- cond: 25 µM
Numbers only, in %.

Here are 3 compounds together with their reported answers.
Give its growth value. Item: `C[C@@H]1C[C@@H]([C@H](O)CC2CC(=O)NC(=O)C2)C(=O)[C@@H](C)C1` 101

Return reported growth; argument: `O=[N+]([O-])/C=C1\NCCCS1` 86.4

Look up growth for this compound: N#Cc1nn(-c2c(Cl)cc(C(F)(F)F)cc2Cl)c(N)c1S(=O)C(F)(F)F (centres undefined) 92.1

Provide reported growth for each item, in the same order as listed.
1. CNC(=O)Oc1ccccc1OC(C)C
2. O=C(NC(=O)c1ccccc1Cl)Nc1ccc(OC(F)(F)F)cc1
3. COc1ccc(Cc2nccc3cc(OC)c(OC)cc23)cc1OC
4. C[C@@H]1O[C@@H](O[C@@H]2C=C3CC[C@@H]4[C@H](CC[C@]5(C)[C@@H](c6ccc(=O)oc6)CC[C@]45O)[C@@]3(C)CC2)[C@H](O)[C@H](O)[C@H]1O
5. CC[C@H]1CN2CCc3cc(OC)c(OC)cc3[C@@H]2C[C@@H]1C[C@H]1NCCc2cc(OC)c(OC)cc21
6. CC1(Nc2ncc3nc(Nc4cc(Cl)cc(C(F)(F)F)c4)n(C4CCNC4)c3n2)CC1 (centres undefined)

1. 92.8
2. 84.1
3. 110
4. 99.3
5. 100
6. 83.5

---

- Tested on: Madurella mycetomatis MM55
- procedure-text: growth relative to untreated control; higher = less inhibition, active = 20 or less
- cond: 100 µM
quantity-name: growth (%)
Answers are plain numbers, in %.

Consider the following illustrative entries.
Quick one: growth for `CNC(=O)Oc1cccc2ccccc12` ? 85.3

Quick one: growth of CC1(C)C(C=C(Cl)Cl)C1C(=O)OC(C#N)c1ccc(F)c(Oc2ccccc2)c1 (stereo unspecified) ? 146

Would you kindly share the measured growth for `O=C(NC(=O)c1c(F)cccc1F)Nc1ccc(Cl)cc1` ? 81

Field: growth. Fill in for each record below.
1. CNC(=O)Oc1ccccc1OC(C)C
2. C=C(C)[C@H]1Cc2c(ccc3c2O[C@@H]2COc4cc(OC)c(OC)cc4[C@@H]2C3=O)O1
3. CC(c1ccc(C(F)(F)F)nc1)S(C)(=O)=NC#N (stereo unspecified)

[129, 9.11, 173]

---

Assignment: determine reported growth for the given compounds.
- Test system: Madurella mycetomatis MM55
- procedure-text: growth relative to untreated control; higher = less inhibition, active = 20 or less
- cond: 25 µM
Give bare numbers, in %.

Lab request: please report growth under test system Madurella mycetomatis MM55 for `CC1(C)CNC(=NN=C(C=Cc2ccc(C(F)(F)F)cc2)C=Cc2ccc(C(F)(F)F)cc2)NC1` 104

Take each entry in turn and give its growth.
1. Cc1sc2c(c1C)C(c1ccc(Cl)cc1)=N[C@@H](CC(=O)OC(C)(C)C)c1nnc(C)n1-2
2. O=C1C=C(N(Cc2ccc(Cl)nc2)CC(F)F)CO1
3. CN(C)CCn1c(Nc2cc(Cl)cc(C(F)(F)F)c2)nc2cnc(NC3CCC3)cc21
4. CNC(=O)c1cc(C#N)cc(C)c1NC(=O)c1cc(Br)nn1-c1ncccc1Cl

[97.1, 92.5, 80.9, 69.7]

Hi team, please reply with growth for each item in this list.
1. CCc1nn(C)c(C(=O)NCc2ccc(Oc3ccc(C)cc3)cc2)c1Cl
2. CC(C)=CC1C(C(=O)OCN2C(=O)C3=C(CCCC3)C2=O)C1(C)C (configuration not stated)
3. Cc1c(COC(=O)[C@@H]2[C@H](C=C(Cl)C(F)(F)F)C2(C)C)cccc1-c1ccccc1

1. 66.4
2. 85.9
3. 123

---

- Tested on: Falciformispora senegalensis CBS197.79
- procedure-text: growth relative to untreated control; higher = less inhibition, active = 20 or less
- cond: 25 µM
quantity-name: growth (%)
One number for each entry, in %.

Below, each entry is followed by its recorded growth result.
# input compound: `CCOc1ccc(C(C)(C)COCc2cccc(Oc3ccccc3)c2)cc1` ; wanted: its growth 79.4

Entry under review: `O=C1C=C(N(Cc2ccc(Cl)nc2)CC(F)F)CO1` . Reported growth? 96.7

Which measured growth value corresponds to `CC[C@@H](C(=O)[C@@H](C)[C@@H](O)[C@H](C)[C@@H]1O[C@@H]([C@@H](CC)C(=O)O)CC[C@@H]1C)[C@H]1O[C@]2(C=C[C@@H](O)[C@]3(CC[C@@](C)([C@H]4CC[C@](O)(CC)[C@H](C)O4)O3)O2)[C@H](C)C[C@@H]1C` ? 102

Name the recorded growth for `CN1CCN(C(=O)O[C@H]2c3nccnc3C(=O)N2c2ccc(Cl)cn2)CC1` . 106

If you can, please state the reported growth value of `CCOCn1c(-c2ccc(Cl)cc2)c(C#N)c(Br)c1C(F)(F)F` . 79.6

Your task in this section: give growth for each listed record.
1. NCCc1cn(S(=O)(=O)c2c(Cl)nc3sccn23)c2ccccc12
2. COP(=S)(OC)Oc1ccc(Sc2ccc(OP(=S)(OC)OC)cc2)cc1
3. CNC(=O)c1cc(C#N)cc(C)c1NC(=O)c1cc(Br)nn1-c1ncccc1Cl
4. CCOP(=S)(OCC)Oc1cc(C)nc(C(C)C)n1

1: 13.2; 2: 93.4; 3: 89.6; 4: 97.9

---

- Tested on: Falciformispora senegalensis CBS197.79
- procedure-text: growth relative to untreated control; higher = less inhibition, active = 20 or less
- cond: 100 µM
quantity-name: growth (%)
Numbers only, in %.

Look over these answered cases.
What growth value was documented for this compound, `COc1ccc(Cc2nccc3cc(OC)c(OC)cc23)cc1OC` ? 104

GET /values?readout=growth&item= `CCOP(=S)(OCC)Oc1cc(C)nc(C(C)C)n1` 88.9

Next up:
Recorded growth for `O=C(NC(=O)c1ccccc1Cl)Nc1ccc(OC(F)(F)F)cc1` , please? 76.1

---

- Tested on: Madurella mycetomatis MM55
- procedure-text: growth relative to untreated control; higher = less inhibition, active = 20 or less
- cond: 100 µM
Please state which outcome applies, choosing from active, inactive

Kindly provide the recorded test outcome for the following compound: `CCN(CC)c1nc(C)cc(OP(=S)(OC)OC)n1` inactive

Others:
Returns: the outcome recorded for `COc1ccc(C[C@H]2NC[C@H](O)[C@H]2OC(C)=O)cc1` in this assay. active

GET /call?item= `Cc1sc2c(c1C)C(c1ccc(Cl)cc1)=N[C@@H](CC(=O)OC(C)(C)C)c1nnc(C)n1-2` returns the recorded outcome of this test. active

Identify the outcome logged in this assay for the compound shown: `CN/C(=N\[N+](=O)[O-])NCc1cnc(Cl)s1` inactive

Any idea what this test logged for `NCCc1cn(S(=O)(=O)c2c(Cl)nc3sccn23)c2ccccc12` ? active

---

- Tested on: Madurella mycetomatis MM55
- procedure-text: growth relative to untreated control; higher = less inhibition, active = 20 or less
- cond: 25 µM
Valid outcomes are listed here; reply with one: active, inactive

Called result for `Cc1nc(N(C)C)nc(OC(=O)N(C)C)c1C` inactive

Kindly provide the recorded test outcome for the following compound: `CNC(=O)O/N=C(/C)SC` inactive

Assay result, entry CC1(Nc2ncc3nc(Nc4cc(Cl)cc(C(F)(F)F)c4)n(C4CCNC4)c3n2)CC1 (centres undefined) — outcome? active

Test call, this compound: CC1(C)C(/C=C(\Cl)c2ccc(Cl)cc2)C1C(=O)OC(C#N)c1ccc(F)c(Oc2ccccc2)c1 (centres undefined) inactive

Identify the outcome logged in this assay for the compound shown: CN1C2CCC1CC(C#N)C2 (centres undefined) inactive

Assay outcome for CC(COc1ccc(Oc2ccccc2)cc1)Oc1ccccn1 (centres undefined) : what was it? inactive

Called result for CC1(C)C(C=C(Cl)Cl)C1C(=O)OCc1cccc(Oc2ccccc2)c1 (centres undefined) inactive

Query: recorded result category for `CN(C)[C@@H]1C(=O)C(C(N)=O)=C(O)[C@@]2(O)C(O)=C3C(=O)c4c(O)cccc4[C@@](C)(O)[C@H]3C[C@@H]12` in this test inactive

Fill in: this test's call for `COP(=S)(OC)Oc1ccc(Sc2ccc(OP(=S)(OC)OC)cc2)cc1` is ___ inactive

Recorded test call requested for Clc1cc(Cl)cc(Nc2nc3cnc(NC4CCCC4)cc3n2C2CCNC2)c1 (centres undefined) active

Look up the recorded call for CC(C)=CC1C(C(=O)OC(C#N)c2cccc(Oc3ccccc3)c2)C1(C)C (centres undefined) in this test. inactive

Would you mind telling me which call this test gave `O=[N+]([O-])/N=C1\NCCN1Cc1ccc(Cl)nc1` ? inactive

Hi, do you know how COC(C)(C)CCCC(C)C/C=C/C(C)=C/C(=O)OC(C)C (centres undefined) came out in this test? inactive

Please indicate how the test categorized `FC(F)(F)c1cc(Cl)cc(Nc2nc3cnc(OC4CCC4)cc3n2[C@@H]2CCNC2)c1` . inactive
